molecular target: Estrogen receptor (Mus musculus) (UniProt O08537+P19785); assay: Uterotrophic effect in mice at 10 ug; format: functional, tissue-based; settings: Uterus
Sequence (O08537 whole entry, looked up): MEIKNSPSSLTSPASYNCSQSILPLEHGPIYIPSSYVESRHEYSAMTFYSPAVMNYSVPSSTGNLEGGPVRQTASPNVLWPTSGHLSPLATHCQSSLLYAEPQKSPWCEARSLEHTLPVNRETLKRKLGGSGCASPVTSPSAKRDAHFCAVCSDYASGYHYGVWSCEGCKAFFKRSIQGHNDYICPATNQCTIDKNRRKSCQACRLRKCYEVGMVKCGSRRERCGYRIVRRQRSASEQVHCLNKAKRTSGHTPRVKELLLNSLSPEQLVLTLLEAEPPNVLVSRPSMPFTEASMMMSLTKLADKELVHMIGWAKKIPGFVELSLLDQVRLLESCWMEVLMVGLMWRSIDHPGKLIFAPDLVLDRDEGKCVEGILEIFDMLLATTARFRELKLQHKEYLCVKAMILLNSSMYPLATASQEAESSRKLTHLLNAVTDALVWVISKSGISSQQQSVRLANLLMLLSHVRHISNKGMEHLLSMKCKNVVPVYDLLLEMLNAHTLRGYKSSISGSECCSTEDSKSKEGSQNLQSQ
Sequence (P19785 whole entry, looked up): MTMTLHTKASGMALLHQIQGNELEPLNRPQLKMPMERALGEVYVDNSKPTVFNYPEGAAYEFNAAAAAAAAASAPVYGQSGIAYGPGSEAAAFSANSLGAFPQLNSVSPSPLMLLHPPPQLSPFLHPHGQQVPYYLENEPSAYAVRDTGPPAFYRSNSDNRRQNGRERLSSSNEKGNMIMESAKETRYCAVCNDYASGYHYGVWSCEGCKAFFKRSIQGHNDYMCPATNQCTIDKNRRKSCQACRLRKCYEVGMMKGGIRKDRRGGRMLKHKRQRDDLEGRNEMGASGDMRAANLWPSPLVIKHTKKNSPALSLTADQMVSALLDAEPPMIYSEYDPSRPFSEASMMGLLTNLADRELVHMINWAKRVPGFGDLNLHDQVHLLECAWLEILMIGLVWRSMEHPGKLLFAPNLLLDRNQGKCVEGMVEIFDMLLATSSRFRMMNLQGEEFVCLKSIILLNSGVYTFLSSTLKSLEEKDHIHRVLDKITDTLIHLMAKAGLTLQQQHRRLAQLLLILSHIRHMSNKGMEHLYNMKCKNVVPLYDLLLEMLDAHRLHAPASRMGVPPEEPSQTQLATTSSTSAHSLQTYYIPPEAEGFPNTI
So basically, if Effect comes in under 20 it's Fulfilled, and if it's 20 or more it's Not fulfilled.

> print(dat)
                                        smi  classification
1    CC(C)(c1cc(O)ccc1F)C(C)(C)c1cc(O)ccc1F       Fulfilled
2  CC(C)(c1cc(O)ccc1Cl)C(C)(C)c1cc(O)ccc1Cl   Not fulfilled
3    CC(C)(c1ccc(O)cc1F)C(C)(C)c1ccc(O)cc1F   Not fulfilled
4  CC(C)(c1ccc(O)cc1Cl)C(C)(C)c1ccc(O)cc1Cl   Not fulfilled

Exercise: Does this molecule meet the criterion Effect < 20? Cc1cc(O)ccc1C(C)(C)C(C)(C)c1ccc(O)cc1C
Solution: Not fulfilled

----------
molecular target: Estrogen receptor (Mus musculus) (UniProt O08537+P19785); assay: Uterotrophic effect in mice at 1000 ug; format: functional, tissue-based; settings: Uterus
ATTRIBUTE MEASURED: Effect

Exercise: Would you kindly share the measured Effect for CC(C)(c1cc(O)ccc1F)C(C)(C)c1cc(O)ccc1F ?
Solution: 35.6

Exercise: Would you kindly share the measured Effect for CC(C)(c1ccc(O)cc1)C(C)(C)c1ccc(O)cc1 ?
Solution: 14.3

Exercise: Would you kindly share the measured Effect for CC(C)(c1ccc(O)cc1F)C(C)(C)c1ccc(O)cc1F ?
Solution: 38.5

Exercise: Would you kindly share the measured Effect for CC(C)(c1cc(O)ccc1Cl)C(C)(C)c1cc(O)ccc1Cl ?
Solution: 35.7

Exercise: Would you kindly share the measured Effect for CC(C)(c1cccc(O)c1)C(C)(C)c1cccc(O)c1 ?
Solution: 13.4

Exercise: Would you kindly share the measured Effect for Cc1cc(O)ccc1C(C)(C)C(C)(C)c1ccc(O)cc1C ?
Solution: 38

Exercise: Would you kindly share the measured Effect for CC(C)(c1ccc(O)cc1Cl)C(C)(C)c1ccc(O)cc1Cl ?
Solution: 35.2
